Quick list: GI50 per entry.
- methodNotes: Antiproliferative activity against human HT-29 cells after 48 hrs by SRB assay
- Format: functional
- protocolConditions: HT-29, 48 h
measurementLabel: GI50 (µM)

- smilesRecord: "COC(=O)c1ccc(-c2cc(N3CCC(CCNS(N)(=O)=O)CC3)ncn2)cc1"
  measurementLabel: "GI50"
  measurementUnit: "µM"
  relationOperator: "="
  resultValue: 19.6
- smilesRecord: "COc1ccccc1-c1cc(N2CCC(CCNS(N)(=O)=O)CC2)ncn1"
  measurementLabel: "GI50"
  measurementUnit: "µM"
  relationOperator: "="
  resultValue: 74.3
- smilesRecord: "NS(=O)(=O)NCC1CCN(c2cc(-c3ccccc3Cl)ncn2)CC1"
  measurementLabel: "GI50"
  measurementUnit: "µM"
  relationOperator: ">"
  resultValue: 100
- smilesRecord: "NS(=O)(=O)NCCC1CCN(c2cc(-c3cccc4ccccc34)ncn2)CC1"
  measurementLabel: "GI50"
  measurementUnit: "µM"
  relationOperator: "="
  resultValue: 3.5
- smilesRecord: "COC(=O)c1ccc(-c2cc(N3CCC(CNS(N)(=O)=O)CC3)ncn2)cc1"
  measurementLabel: "GI50"
  measurementUnit: "µM"
  relationOperator: "="
  resultValue: 22.9
- smilesRecord: "NS(=O)(=O)NCCC1CCN(c2cc(-c3ccccc3)ncn2)CC1"
  measurementLabel: "GI50"
  measurementUnit: "µM"
  relationOperator: "="
  resultValue: 66.5
- smilesRecord: "NS(=O)(=O)NCCC1CCN(c2cc(-c3cccc(Cl)c3)ncn2)CC1"
  measurementLabel: "GI50"
  measurementUnit: "µM"
  relationOperator: "="
  resultValue: 31.6
- smilesRecord: "NS(=O)(=O)NCCC1CCN(c2cc(-c3ccc(Cl)cc3)ncn2)CC1"
  measurementLabel: "GI50"
  measurementUnit: "µM"
  relationOperator: "="
  resultValue: 30.5
- smilesRecord: "Cc1ccc(-c2cc(N3CCC(CCNS(N)(=O)=O)CC3)ncn2)cc1"
  measurementLabel: "GI50"
  measurementUnit: "µM"
  relationOperator: "="
  resultValue: 52.3
- smilesRecord: "NS(=O)(=O)NCC1CCN(c2cc(-c3ccccc3F)ncn2)CC1"
  measurementLabel: "GI50"
  measurementUnit: "µM"
  relationOperator: "="
  resultValue: 80.4

###

- methodNotes: Antiproliferative activity against human HT-29 cells after 48 hrs by SRB assay
- Assay type: functional
- protocolConditions: HT-29, 48 h
Quick list: GI50 per entry.

- smilesRecord: "COc1ccc(-c2cc(N3CCC(CNS(N)(=O)=O)CC3)ncn2)cc1"
  GI50: "> 100 µM"
- smilesRecord: "NS(=O)(=O)NCC1CCN(c2cc(-c3ccccc3)ncn2)CC1"
  GI50: "> 100 µM"
- smilesRecord: "COc1ccccc1-c1cc(N2CCC(CNS(N)(=O)=O)CC2)ncn1"
  GI50: "> 100 µM"

###

- methodNotes: Antiproliferative activity against human M21 cells after 48 hrs by SRB assay
- Type: functional
- protocolConditions: M21, 48 h
measurementLabel: GI50 (µM)

- smilesRecord: "CCOC(=O)c1ccc(-c2cc(N3CCC(CNS(N)(=O)=O)CC3)ncn2)cc1"
  relationOperator: "="
  resultValue: 5
- smilesRecord: "COc1ccc(-c2cc(N3CCC(CNS(N)(=O)=O)CC3)ncn2)cc1"
  relationOperator: ">"
  resultValue: 100
- smilesRecord: "CCCCc1ccc(-c2cc(N3CCC(CNS(N)(=O)=O)CC3)ncn2)cc1"
  relationOperator: "="
  resultValue: 47.2
